Answer each item with its documented inhibition at 1 µM.
Biological target: Human PI3K delta (Homo sapiens, UniProt O00329)
Construct: His (N); host or cells: SF9 insect cells (baculovirus)
Sequence (O00329 whole entry): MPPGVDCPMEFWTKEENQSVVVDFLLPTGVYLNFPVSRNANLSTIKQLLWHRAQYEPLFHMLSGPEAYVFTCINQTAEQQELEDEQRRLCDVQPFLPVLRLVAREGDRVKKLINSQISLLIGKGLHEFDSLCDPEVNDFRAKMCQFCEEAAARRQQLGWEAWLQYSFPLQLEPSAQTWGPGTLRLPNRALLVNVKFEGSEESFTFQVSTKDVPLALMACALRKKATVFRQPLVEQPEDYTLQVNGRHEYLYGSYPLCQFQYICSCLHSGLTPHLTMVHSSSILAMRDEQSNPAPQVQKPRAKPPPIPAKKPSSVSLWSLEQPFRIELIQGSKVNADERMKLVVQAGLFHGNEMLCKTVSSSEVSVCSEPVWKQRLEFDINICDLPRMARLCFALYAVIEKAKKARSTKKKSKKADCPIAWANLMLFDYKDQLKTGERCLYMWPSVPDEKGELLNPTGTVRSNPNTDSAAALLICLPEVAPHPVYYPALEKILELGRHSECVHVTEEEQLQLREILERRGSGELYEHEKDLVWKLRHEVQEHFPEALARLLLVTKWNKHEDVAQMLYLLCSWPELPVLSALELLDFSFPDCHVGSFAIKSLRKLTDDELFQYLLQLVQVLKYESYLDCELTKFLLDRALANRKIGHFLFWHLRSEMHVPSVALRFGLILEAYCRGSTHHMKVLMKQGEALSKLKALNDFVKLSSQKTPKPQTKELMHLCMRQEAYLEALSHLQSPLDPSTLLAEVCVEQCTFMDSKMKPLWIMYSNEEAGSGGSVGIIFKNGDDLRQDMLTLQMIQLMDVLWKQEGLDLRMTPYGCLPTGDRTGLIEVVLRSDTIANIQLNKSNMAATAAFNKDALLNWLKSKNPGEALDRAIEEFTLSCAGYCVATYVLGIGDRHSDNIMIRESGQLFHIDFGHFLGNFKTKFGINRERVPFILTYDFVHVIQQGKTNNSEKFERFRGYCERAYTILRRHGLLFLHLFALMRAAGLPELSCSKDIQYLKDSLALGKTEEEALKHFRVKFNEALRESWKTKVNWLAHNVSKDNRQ
Sequence (P27986 whole entry partner): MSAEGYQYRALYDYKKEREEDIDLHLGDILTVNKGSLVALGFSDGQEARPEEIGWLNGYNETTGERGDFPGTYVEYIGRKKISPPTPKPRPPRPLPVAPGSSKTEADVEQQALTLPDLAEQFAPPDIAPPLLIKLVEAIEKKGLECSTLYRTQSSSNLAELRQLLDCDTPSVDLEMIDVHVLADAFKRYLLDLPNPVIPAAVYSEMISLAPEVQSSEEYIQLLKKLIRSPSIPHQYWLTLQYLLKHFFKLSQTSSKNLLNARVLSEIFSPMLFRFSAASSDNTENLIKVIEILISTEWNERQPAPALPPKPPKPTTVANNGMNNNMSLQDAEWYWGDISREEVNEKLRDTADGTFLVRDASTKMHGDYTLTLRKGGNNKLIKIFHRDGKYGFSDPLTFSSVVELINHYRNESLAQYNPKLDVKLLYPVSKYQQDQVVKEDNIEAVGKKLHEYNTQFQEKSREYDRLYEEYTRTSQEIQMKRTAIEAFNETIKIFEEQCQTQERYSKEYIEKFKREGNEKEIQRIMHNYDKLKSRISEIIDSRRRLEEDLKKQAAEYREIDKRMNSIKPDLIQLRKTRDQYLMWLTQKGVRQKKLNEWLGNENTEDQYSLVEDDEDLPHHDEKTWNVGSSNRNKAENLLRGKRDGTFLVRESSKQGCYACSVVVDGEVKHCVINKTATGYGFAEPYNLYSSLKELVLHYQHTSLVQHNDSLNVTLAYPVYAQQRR
Test: Human PI3K delta enzyme assay (HTRF)
Format: biochemical
Conditions: concentration not given; b1389 states 1.0 μM for PI3K δ and γ; read-out: p110 delta Percent Inhibition
Number in %, nothing else.

Q: Give the measured inhibition at 1 µM of N#Cc1c(N2CCOCC2)sc(C(=O)O)c1Cn1cnc2ccccc2c1=O [Compound 294] .
A: 101

Q: So what does the record say about inhibition at 1 µM for CC(=O)Nc1cc(-c2cc([C@H](c3ccc(Cl)cc3)N(C)C)c(-c3nnc[nH]3)s2)ccn1 (single isomer, unassigned) [Compound 261] ?
A: 105

Q: Looking for the measured inhibition at 1 µM of CC(=O)Nc1cc(-c2cc(C(c3ccc(Cl)cc3)N3CCC3)c(-c3nnc[nH]3)s2)ccn1 (centres unmarked) [Compound 151] , can you help?
A: 108

Q: Look at this compound and give its reported inhibition at 1 µM. OC(c1cc(-c2ccncc2)sc1-c1nnc[nH]1)c1cccc(F)c1F (centres unmarked) [Compound 235]
A: 66

Q: May I ask what inhibition at 1 µM has been recorded for CC(=O)NC(c1ccc(Cl)cc1)c1c(C(=O)O)sc(N2CCOCC2)c1C#N (centres unmarked) [Compound 353] ?
A: 80

Q: Fill in: inhibition at 1 µM of N#Cc1c(N2CCOCC2)sc(C(=O)O)c1Cc1cc2cc(F)ccc2[nH]1 [Compound 312] is ___
A: 92

Q: GET /values?readout=inhibition at 1 µM&item= N#Cc1c(N2CCOCC2)sc(C(=O)O)c1Cc1cc2ccccc2cc1F [Compound 295]
A: 112

Q: Which inhibition at 1 µM value belongs to CC(=O)Nc1cc(-c2cc(C(NCCN(C)C)c3ccc(Cl)cc3)c(-c3nnc[nH]3)s2)ccn1 (centres unmarked) [Compound 184] ?
A: 112

Q: // inhibition at 1 µM lookup, key: CC(=O)Nc1cc(-c2cc(C(c3ccc(Cl)cc3)N3CCN(CC(F)(F)F)CC3)c(-c3nnc[nH]3)s2)ccn1 (centres unmarked) [Compound 157]
A: 101

Q: inhibition at 1 µM lookup needed for CC(=O)Nc1cc(-c2cc(C(c3ccc(Cl)cc3)N3CCC(CN)C3)c(-c3nnc[nH]3)s2)ccn1 (centres unmarked) [Compound 139] , thanks.
A: 105

Q: Requested read-out: inhibition at 1 µM. Entry: O=C(NO)c1sc(N2CCOCC2)nc1Cc1ccc(Cl)c(Cl)c1 [Compound 298]
A: 103

Q: Please look up its inhibition at 1 µM: N#Cc1c(N2CCOCC2)sc(C(=O)O)c1C(F)(F)c1ccc2ccccc2c1 [Compound 308]
A: 92

Q: Request the reported inhibition at 1 µM associated with CC(=O)Nc1cc(-c2cc(C(O)(C3=CCOCC3)c3ccc(Cl)cc3)c(-c3nnc[nH]3)s2)ccn1 (centres unmarked) [Compound 273]
A: 98

Q: Would you mind telling me what inhibition at 1 µM value was observed for CC(c1ccc2ccccc2c1)c1c(C(=O)O)sc(N2CCOCC2)c1C#N (centres unmarked) [Compound 333] ?
A: 74

Q: Look at this compound and give its reported inhibition at 1 µM. N#Cc1c(N2CCOCC2)sc(C(=O)O)c1Cc1cc2ccc(Cl)cc2[nH]1 [Compound 359]
A: 102

Q: Looking for the measured inhibition at 1 µM of CC(=O)Nc1cc(-c2sc(-c3nnc[nH]3)c(C(O)c3ccc(Cl)cc3)c2C#N)ccn1 (centres unmarked) [Compound 165] , can you help?
A: 87

Q: May I ask what inhibition at 1 µM has been recorded for OC(c1ccc2c(c1)OCCO2)c1cc(-c2ccncc2)sc1-c1nnc[nH]1 (centres unmarked) [Compound 215] ?
A: 51

Q: # inhibition at 1 µM lookup, item COc1ccc(C(O)c2cc(-c3ccncc3)sc2-c2nnc[nH]2)cc1F (centres unmarked) [Compound 130]
A: 62

Q: Could you tell me which inhibition at 1 µM is on file for OC(c1cnc2ccccc2c1)c1cc(-c2ccncc2)sc1-c1nnc[nH]1 (centres unmarked) [Compound 132] ?
A: 77

Q: What does the data say about its inhibition at 1 µM? Entry: CC(=O)Nc1cc(-c2cc(C(c3ccc(Cl)cc3)N3CCCC3)c(-c3nnc[nH]3)s2)ccn1 (centres unmarked) [Compound 230]
A: 102

Q: Data request, read-out inhibition at 1 µM, for Clc1cccc(Cc2nc(-c3ccncc3)sc2-c2nnc[nH]2)c1 [Compound 137]
A: 30

Q: inhibition at 1 µM lookup needed for CC(=O)Nc1cc(-c2cc(C(c3ccc(Cl)cc3)N3CC(F)(F)C3)c(-c3nnc[nH]3)s2)ccn1 (centres unmarked) [Compound 216] , thanks.
A: 99

Q: Item under review: COC(c1ccc(Cl)cc1)c1cc(-c2ccnc(NC(C)=O)c2)sc1-c1nnc[nH]1 (centres unmarked) [Compound 220] . Reported inhibition at 1 µM?
A: 99

Q: Item N#Cc1c(-c2ccncc2)sc(C(=O)O)c1Cc1ccc2ccccc2c1 [Compound 143] has what recorded inhibition at 1 µM?
A: 85

Q: Fill in: inhibition at 1 µM of Cc1ccc(C(O)c2cc(-c3ccncc3)sc2-c2nnc[nH]2)s1 (centres unmarked) [Compound 271] is ___
A: 63

Q: Request the reported inhibition at 1 µM associated with N#Cc1c(N2CCOCC2)sc(C(=O)O)c1Cc1ccc2c(F)cccc2c1 [Compound 343]
A: 113

Q: Can you share its inhibition at 1 µM? I mean this compound: OC(c1ccc(F)cc1F)c1cc(-c2ccncc2)sc1-c1nnc[nH]1 (centres unmarked) [Compound 162]
A: 83

Q: # inhibition at 1 µM lookup, item CC(=O)Nc1cc(-c2cc([C@H](c3ccc(Cl)cc3)N3CCC3)c(-c3nnc[nH]3)s2)ccn1 (single isomer, unassigned) [Compound 241]
A: 104

Q: Can you share its inhibition at 1 µM? I mean this compound: OC(c1cc(-c2ccncc2)sc1-c1nnc[nH]1)c1c(F)cccc1Cl (centres unmarked) [Compound 275]
A: 44

Q: I am curious: what inhibition at 1 µM value has been reported for CS(=O)(=O)NC(c1ccc(Cl)cc1)c1c(C(=O)O)sc(N2CCOCC2)c1C#N (centres unmarked) [Compound 317] ?
A: 70

Q: Data request, read-out inhibition at 1 µM, for NC(=O)c1sc(N2CCOCC2)nc1Cc1ccc2ccccc2c1 [Compound 334]
A: 101

Q: Which measured inhibition at 1 µM value corresponds to COC(=O)Nc1cc(-c2sc(-c3nnc[nH]3)c(C(O)c3ccc(Cl)cc3)c2C#N)ccn1 (centres unmarked) [Compound 195] ?
A: 88
